- TESTED TARGET: SARS-COV-2 RBD extracellular domain expressed with a C-terminal mouse IgG2a Fc (SARS-CoV-2)
- ASSAY: Biacore SPR, mAb captured on anti-hFc, 25 C
Would you kindly list pKd for each of these binders?
# pKd: negative log10 of molar concentration; output just the value

The measured pKd associated with mAb14286 (antibody, V domains shown) VH: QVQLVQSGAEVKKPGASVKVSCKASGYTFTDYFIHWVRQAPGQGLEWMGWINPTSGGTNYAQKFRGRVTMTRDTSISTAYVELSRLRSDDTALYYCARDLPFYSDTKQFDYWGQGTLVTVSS VL: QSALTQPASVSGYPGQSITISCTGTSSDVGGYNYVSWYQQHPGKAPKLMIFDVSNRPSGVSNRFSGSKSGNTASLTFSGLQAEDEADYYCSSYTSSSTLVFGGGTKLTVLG reads 9.65

Entry mAb14294 (antibody, V domains shown) VH: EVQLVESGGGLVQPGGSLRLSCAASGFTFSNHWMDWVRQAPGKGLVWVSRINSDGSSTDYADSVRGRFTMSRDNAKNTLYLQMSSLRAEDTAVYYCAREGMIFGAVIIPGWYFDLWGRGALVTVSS VL: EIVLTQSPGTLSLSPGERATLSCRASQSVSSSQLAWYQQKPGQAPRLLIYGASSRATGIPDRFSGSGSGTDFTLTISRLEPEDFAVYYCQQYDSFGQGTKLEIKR — recorded pKd = 10.53

Recorded pKd (binder mAb14247 (antibody, V domains shown) VH: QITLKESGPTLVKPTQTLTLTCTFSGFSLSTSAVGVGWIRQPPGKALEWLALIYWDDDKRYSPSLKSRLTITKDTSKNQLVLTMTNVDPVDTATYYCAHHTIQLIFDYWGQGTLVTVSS VL: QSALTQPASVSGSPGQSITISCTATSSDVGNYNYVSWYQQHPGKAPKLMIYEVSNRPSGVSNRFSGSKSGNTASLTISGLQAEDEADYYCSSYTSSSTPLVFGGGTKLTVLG ): 9.88

Source listed as patent US20260069689A1.
